Reference for the values: patent US20250136617A1

- Target system: CXCR4 (Homo sapiens, UniProt P61073)
- Sequence (P61073 whole entry): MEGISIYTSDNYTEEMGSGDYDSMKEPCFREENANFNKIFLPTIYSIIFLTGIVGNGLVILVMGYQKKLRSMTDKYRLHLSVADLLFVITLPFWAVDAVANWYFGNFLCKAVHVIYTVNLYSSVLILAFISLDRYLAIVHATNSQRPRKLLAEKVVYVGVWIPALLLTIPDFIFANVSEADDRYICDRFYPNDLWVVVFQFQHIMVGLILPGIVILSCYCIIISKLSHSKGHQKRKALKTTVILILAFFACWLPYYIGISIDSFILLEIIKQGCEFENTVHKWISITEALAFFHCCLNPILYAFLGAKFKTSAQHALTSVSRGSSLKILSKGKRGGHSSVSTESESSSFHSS
- Method notes: β-arrestin recruitment, 384-well, Tango CXCR4-bla U2OS cells, normalized to SDF-1α
- Assay type: cell-based
- Parameters: host or cells: U2OS
- Run parameters: normalized to SDF-1; read-out: TANGO β-arrestin EC50
Provide the recorded EC50 for the entries that follow.

As a guide, the following entries are already answered.
[
  {
    "Molecule": "COc1cccc(-c2nnc3n2N=C(c2ccccc2)CS3)c1 [Entry 58]",
    "EC50": "> 80 µM"
  },
  {
    "Molecule": "CCOc1ccccc1-c1nnc2n1N=C(c1ccc(OC(F)F)cc1)CS2 [Entry 11]",
    "EC50": "< 5 µM"
  },
  {
    "Molecule": "CCOc1ccccc1-c1nnc2n1N=C(c1ccc(NCc3ccccc3)cc1)CS2 [Entry 47]",
    "EC50": "> 10 µM"
  },
  {
    "Molecule": "CCOc1ccccc1-c1nnc2n1N=C(c1ccc(NC(=O)C(C)C)cc1)CS2 [Entry 31]",
    "EC50": "> 10 µM"
  },
  {
    "Molecule": "CCOc1ccccc1-c1nnc2n1N=C(c1ccc(NC(=O)c3ccccc3)cc1)CS2 [Entry 34]",
    "EC50": "< 5 µM"
  },
  {
    "Molecule": "CCOc1ccccc1-c1nnc2n1N=C(c1ccc(NC3CCCCC3)cc1)CS2 [Entry 46]",
    "EC50": "< 5 µM"
  },
  {
    "Molecule": "COc1ccccc1-c1nnc2n1N=C(c1ccc(N3CCOCC3)cc1)CS2 [Entry 16]",
    "EC50": "5 to 50 µM"
  },
  {
    "Molecule": "COc1ccc(OC)c(-c2nnc3n2N=C(c2ccc(N4CCC4)cc2)CS3)c1 [Entry 80]",
    "EC50": "< 5 µM"
  }
]

Batch request: EC50 per item, same order as input.
1. COc1ccc(C2=Nn3c(nnc3-c3cccc(OC)c3)SC2)cc1 [Entry 60]
2. CCCCc1ccc(C2=Nn3c(nnc3-c3ccccc3OC)SC2)cc1 [Entry 19]
3. c1ccc(C2=Nn3c(nnc3-c3ccccc3)SC2)cc1 [Entry 50]
4. COc1ccc(C2=Nn3c(nnc3-c3ccccc3OC)SC2)cc1 [Entry 55]
5. CCOc1ccccc1-c1nnc2n1N=C(c1ccc(NCC3CC3)cc1)CS2 [Entry 48]
6. COc1ccccc1-c1nnc2n1N=C(c1ccc(N(C)C)cc1)CS2 [Entry 13]
7. COc1ccc(C2=Nn3c(nnc3-c3ccccc3)SC2)cc1 [Entry 51]
8. C=CCOc1ccc(C2=Nn3c(nnc3-c3ccccc3OCC)SC2)cc1 [Entry 6]

["< 5 µM", "5 to 50 µM", "> 80 µM", "< 5 µM", "< 5 µM", "< 5 µM", "5 to 50 µM", "< 5 µM"]

Batch request: EC50 per item, same order as input.
1. CCOc1ccccc1-c1nnc2n1N=C(c1ccc(NC(=O)c3cccc(C(=O)OC)c3)cc1)CS2 [Entry 36]
2. CCOc1ccccc1-c1nnc2n1N=C(c1ccc(NC(C)=O)cc1)CS2 [Entry 30]
3. CCOc1ccccc1-c1nnc2n1N=C(c1ccc(C(=O)OC)cc1)CS2 [Entry 71]
4. CCOC(=O)C1CCN(c2ccc(C3=Nn4c(nnc4-c4ccccc4OCC)SC3)cc2)C1 (stereo not drawn) [Entry 66]
5. C#CCCCNc1ccc(C2=Nn3c(nnc3-c3ccccc3OCC)SC2)cc1 [Entry 43]
6. CCOc1ccccc1-c1nnc2n1N=C(c1ccc(NC(=O)C3CCCC3)cc1)CS2 [Entry 33]

1. > 10 µM
2. < 5 µM
3. < 5 µM
4. > 10 µM
5. < 5 µM
6. > 10 µM

Batch request: EC50 per item, same order as input.
1. CCOc1ccccc1-c1nnc2n1N=C(c1ccc(C(=O)Nc3ccccc3)cc1)CS2 [Entry 69]
2. C=CCOc1ccc(C2=Nn3c(nnc3-c3ccccc3OCC)SC2)cc1 [Entry 7]
3. CCOc1ccccc1-c1nnc2n1N=C(c1ccc(NC(=O)C3CC3)cc1)CS2 [Entry 32]

< 5 µM
< 5 µM
< 5 µM
